The reported measurements were obtained from patent US20140356358A1.

target: T1, human neonatal Fc receptor (hFcRn) (human, UniProt P55899 24-290; P61769 21-119); assay: phage ELISA pH 6;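 note: higher score means stronger binding and above about 3 to 5 exceeds background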
T1 construct: Biotinylated in the ELISA, Octet and yeast assays; also called human FcRn; huFcRn
T1 sequence (P55899 24-290 limits assumed, chain 1 of 2): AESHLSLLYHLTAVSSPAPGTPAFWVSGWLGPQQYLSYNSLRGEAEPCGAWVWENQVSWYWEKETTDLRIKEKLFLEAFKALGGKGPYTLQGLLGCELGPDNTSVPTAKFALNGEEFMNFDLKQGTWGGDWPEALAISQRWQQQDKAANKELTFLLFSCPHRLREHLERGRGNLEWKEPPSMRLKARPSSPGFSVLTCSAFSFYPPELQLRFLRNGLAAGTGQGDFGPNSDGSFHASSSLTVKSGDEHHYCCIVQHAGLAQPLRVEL
T1 sequence (P61769 21-119 limits assumed, chain 2 of 2): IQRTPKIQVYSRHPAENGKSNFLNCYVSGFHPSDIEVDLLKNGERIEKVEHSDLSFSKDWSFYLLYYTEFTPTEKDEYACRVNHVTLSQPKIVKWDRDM
Known ELISA score of a selection of binders
readout: ELISA score

1. L5 isolate with insertion SEQ ID NO: 397 (other) EPKSCDKTHTCPPCPAPELLGGPSVFLFPPKPKDTLMISRTPEVTCVVVDVSHEDPEVKFNWYVDGVEVHNAKTKPREEQYNSTYRVVSVLTVLHQDWLNGKEYKCKVSNKALPAPIEKTISKAKGQPREPQVYTLPPSRDELTKNQVSLTCLVKGFYPSDIAVEWESNGGCPFEFTQCGGGQPENNYKTTPPVLDSDGSFFLYSKLTVDKSRWQQGNVFSCSVMHEALHNHYTQKSLSLSPGK    87.3
2. variant Fc-fragment Fc-5-96 (other, soluble elsewhere) EPKSCDKTHTCPPCPAPELLGGPSVFLFPPKPKDTLMISRTPEVTCVVVDVSHEDPEVKFNWYVDGVEVHNAKTKPREEQYNSTYRVVSVLTVLHQDWLNGKEYKCKVSNKALPAPIEKTISKAKGQPREPQVYTLPPSRDELTKNQVSLTCLVKGFYPSDIAVEWESNGGCMQMNKWCGGGQPENNYKTTPPVLDSDGSFFLYSKLTVDKSRWQQGNVFSCSVMHEALHNHYTQKSLSLSPGK    72.7
3. L5 isolate with insertion SEQ ID NO: 393 (other) EPKSCDKTHTCPPCPAPELLGGPSVFLFPPKPKDTLMISRTPEVTCVVVDVSHEDPEVKFNWYVDGVEVHNAKTKPREEQYNSTYRVVSVLTVLHQDWLNGKEYKCKVSNKALPAPIEKTISKAKGQPREPQVYTLPPSRDELTKNQVSLTCLVKGFYPSDIAVEWESNGGCGHGWIFCGGGQPENNYKTTPPVLDSDGSFFLYSKLTVDKSRWQQGNVFSCSVMHEALHNHYTQKSLSLSPGK    92.1
